Tested on: Panc-2H4 cells
Assay: Human Panc-2H4 insulin suppression assay
Type: cell-based
Details: Table 4; 0.01 nM to 1,000 nM, DMSO 1%; read-out: Panc-2H4 insulin suppression assay (“classical” target) ED50
METRIC: EC50 (nM)
State just the number; it will be interpreted in nM.

// lookup EC50 for C[C@@H](c1c[nH]c2ccccc12)[C@@H](NC(=O)N1CCC(n2c(=O)[nH]c3ccccc32)CC1)C(=O)NC[C@@H]1CCC[C@H](CN)C1 [L-779,976]
17

---

Target: sstr2 (Homo sapiens)
Construct: with 1×10^6 THP-1 cells in Gey's Balanced Salt Solution; endogenous in cells
Sequence (P30874 whole entry): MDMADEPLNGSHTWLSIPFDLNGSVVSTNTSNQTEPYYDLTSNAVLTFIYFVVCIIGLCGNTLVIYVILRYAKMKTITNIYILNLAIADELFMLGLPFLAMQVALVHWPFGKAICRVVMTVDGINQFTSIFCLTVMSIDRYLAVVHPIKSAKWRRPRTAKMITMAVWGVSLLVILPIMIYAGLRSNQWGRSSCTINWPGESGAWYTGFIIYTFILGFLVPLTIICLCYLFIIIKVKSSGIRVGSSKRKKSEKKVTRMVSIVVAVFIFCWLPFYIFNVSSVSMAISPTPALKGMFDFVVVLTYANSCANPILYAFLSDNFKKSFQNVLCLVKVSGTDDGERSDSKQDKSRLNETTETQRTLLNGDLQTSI
Assay: Equilibrium binding of [3H]-BN83250 to THP-1 cells
Conditions: THP-1 cells, 2 hours at 4° C.; read-out: Affinity (Scatchard analysis)
pKd: −log10 of the molar value.
METRIC: pKd

pKd for [3H]C(CCCCCCC)C([3H])CC(C)(C)C(=O)N[C@H]1CCCCNC1=O (stereo partly shown) [[^3H]-BN83250] ?
~7.10
